molecular target: vanilloid receptor 1 (VR1/TRPV1 receptor) (Homo sapiens); construct: expressed in transfected cells; host or cells: CHO K1; assay: Functional testing on the vanilloid receptor 1 (VR1/TRPV1): FLIPR Ca2+ influx assay, displacement of capsaicin; format: cell-based, human being; parameters: key: AG=agonist; NE=no effect; pAG=partial agonist; details: capsaicin (Cap); human being
Sequence (Q8NER1 whole entry): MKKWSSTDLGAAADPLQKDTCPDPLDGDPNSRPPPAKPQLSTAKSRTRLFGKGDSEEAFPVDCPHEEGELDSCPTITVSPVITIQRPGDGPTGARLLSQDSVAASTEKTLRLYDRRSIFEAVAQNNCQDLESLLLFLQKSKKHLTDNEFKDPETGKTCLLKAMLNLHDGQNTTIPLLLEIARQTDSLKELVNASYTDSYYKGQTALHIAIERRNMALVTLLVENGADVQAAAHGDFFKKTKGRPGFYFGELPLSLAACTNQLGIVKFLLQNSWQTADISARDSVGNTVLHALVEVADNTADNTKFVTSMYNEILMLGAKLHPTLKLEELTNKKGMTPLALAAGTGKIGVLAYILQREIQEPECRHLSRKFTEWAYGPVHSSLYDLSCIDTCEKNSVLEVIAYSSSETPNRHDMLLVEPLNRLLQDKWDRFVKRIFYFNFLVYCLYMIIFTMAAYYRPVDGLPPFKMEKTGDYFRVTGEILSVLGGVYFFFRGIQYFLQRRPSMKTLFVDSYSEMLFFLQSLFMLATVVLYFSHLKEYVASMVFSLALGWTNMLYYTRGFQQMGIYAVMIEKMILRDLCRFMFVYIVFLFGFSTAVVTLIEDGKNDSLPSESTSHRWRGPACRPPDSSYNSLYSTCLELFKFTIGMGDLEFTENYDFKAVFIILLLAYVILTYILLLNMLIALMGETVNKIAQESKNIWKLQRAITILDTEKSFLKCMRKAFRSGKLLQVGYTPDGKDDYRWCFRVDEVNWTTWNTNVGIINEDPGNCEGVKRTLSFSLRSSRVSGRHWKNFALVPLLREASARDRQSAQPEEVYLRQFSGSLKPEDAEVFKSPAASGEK
TEST READOUT: mode of action at VR1/TRPV1 (AG, pAG, NE), Cap

COc1ccc(-n2nc(C(F)(F)F)cc2CNC(=O)Nc2ccc(CO)nc2)cc1F [Example 35]; NE
O=C(NCc1cc(C(F)(F)F)nn1-c1cccc(Cl)c1)Nc1ccnnc1 [Example 15]; AG
O=C(NCc1cc(C(F)(F)F)nn1-c1cccc(F)c1)Nc1ccc(C2CCOCC2)nc1 [Example 54]; NE
CC(C(=O)NCc1cc(C(C)(C)C)nn1-c1cccc(Cl)c1)c1ccc(C(N)=O)nc1 (centres unmarked) [Example 56]; AG

Could you now consider this next compound?
Qu. Can you look up mode of action at VR1/TRPV1 (AG, pAG, NE), Cap on vanilloid receptor 1 (VR1/TRPV1 receptor) (Homo sapiens) for CC(C(=O)NCc1cc(C(C)(C)C)nn1-c1cccc(Cl)c1)c1ccccn1 (centres unmarked) [Example 2] ?
Ans. AG
